We begin with a simple list: items and their reported IC50 max.
molecular target: Endothelin-1 receptor (Sus scrofa, UniProt Q29010); test: Binding activity against Endothelin A receptor of Porcine aortic smooth muscle membranes
Sequence (Q29010 whole entry): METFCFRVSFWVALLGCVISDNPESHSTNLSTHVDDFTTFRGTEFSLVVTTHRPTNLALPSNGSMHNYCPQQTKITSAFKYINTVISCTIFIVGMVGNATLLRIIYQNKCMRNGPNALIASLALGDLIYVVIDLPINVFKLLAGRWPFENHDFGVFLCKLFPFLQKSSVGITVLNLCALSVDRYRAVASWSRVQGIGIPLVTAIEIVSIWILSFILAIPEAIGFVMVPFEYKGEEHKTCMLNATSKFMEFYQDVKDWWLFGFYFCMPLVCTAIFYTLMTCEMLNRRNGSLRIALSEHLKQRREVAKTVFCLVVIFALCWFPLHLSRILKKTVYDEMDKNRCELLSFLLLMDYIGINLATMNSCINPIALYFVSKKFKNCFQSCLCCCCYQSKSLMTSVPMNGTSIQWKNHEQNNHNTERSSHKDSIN
Residues, ends and D or L forms follow the SMILES beside them.
The reply should read as a number followed by its unit.

# annotated cases, reported IC50 max shown
compound: CC[C@H](C)[C@H]1NC(=O)[C@H](C)NC(=O)[C@@H](CCC(=O)O)NC(=O)[C@@H](Cc2c[nH]c3ccccc23)NC(=O)[C@H](CC(C)C)NC1=O (HELM PEPTIDE1{A.[CC[C@H](C)[C@@H](N[*:1])C(=O)[*:2]].L.[dW].[dE]}$PEPTIDE1,PEPTIDE1,1:R1-5:R2$$$V2.0)
study.system: Endothelin-1 receptor (Sus scrofa, UniProt Q29010)
measurement.kind: IC50 max
value.reported: 1.4 µM
--
compound: CC(C)[C@H]1NC(=O)[C@H](C)NC(=O)[C@@H](CC(=O)O)NC(=O)[C@@H](Cc2c[nH]c3ccccc23)NC(=O)[C@@H]2CCCN2C1=O (HELM PEPTIDE1{A.[dV].P.[dW].[dD]}$PEPTIDE1,PEPTIDE1,1:R1-5:R2$$$V2.0)
study.system: Endothelin-1 receptor (Sus scrofa, UniProt Q29010)
measurement.kind: IC50 max
value.reported: 8.5 µM
--
compound: CC(C)C[C@@H]1NC(=O)[C@@H](C(C)C)NC(=O)[C@@H]2CCCN2C(=O)[C@@H](CC(=O)O)NC(=O)[C@@H](Cc2c[nH]c3ccccc23)NC1=O (HELM PEPTIDE1{L.[dW].[dD].P.[dV]}$PEPTIDE1,PEPTIDE1,1:R1-5:R2$$$V2.0)
study.system: Endothelin-1 receptor (Sus scrofa, UniProt Q29010)
measurement.kind: IC50 max
value.reported: 0.022 µM
--
compound: CC(C)C[C@@H]1NC(=O)[C@@H](C(C)C)NC(=O)[C@H](C)NC(=O)[C@@H](CC(=O)O)NC(=O)[C@@H](Cc2c[nH]c3ccccc23)NC1=O (HELM PEPTIDE1{A.[dV].L.[dW].[dD]}$PEPTIDE1,PEPTIDE1,1:R1-5:R2$$$V2.0)
study.system: Endothelin-1 receptor (Sus scrofa, UniProt Q29010)
measurement.kind: IC50 max
value.reported: 0.11 µM
--
compound: CC(C)C[C@@H]1NC(=O)[C@@H](C(C)C)NC(=O)CN(C)C(=O)[C@@H](CC(=O)O)NC(=O)[C@@H](Cc2c[nH]c3ccccc23)NC1=O (HELM PEPTIDE1{L.[dW].[dD].[Sar].[dV]}$PEPTIDE1,PEPTIDE1,1:R1-5:R2$$$V2.0)
study.system: Endothelin-1 receptor (Sus scrofa, UniProt Q29010)
measurement.kind: IC50 max
value.reported: 0.032 µM

Task: Given CC(C)C[C@@H]1NC(=O)[C@@H](C(C)C)NC(=O)[C@H](C)NC(=O)[C@@H](CCC(=O)O)NC(=O)[C@@H](Cc2c[nH]c3ccccc23)NC1=O (HELM PEPTIDE1{A.[dV].L.[dW].[dE]}$PEPTIDE1,PEPTIDE1,1:R1-5:R2$$$V2.0) , state its recorded IC50 max.
Result: 3 µM

Task: Given CC(C)C[C@@H]1NC(=O)[C@@H](C(C)C)NC(=O)[C@@H]2CCCN2C(=O)[C@@H](CCC(=O)O)NC(=O)[C@@H](Cc2c[nH]c3ccccc23)NC1=O (HELM PEPTIDE1{L.[dW].[dE].P.[dV]}$PEPTIDE1,PEPTIDE1,1:R1-5:R2$$$V2.0) , state its recorded IC50 max.
Result: 0.41 µM

Task: Given CC(C)C[C@@H]1NC(=O)[C@@H](C(C)C)NC(=O)[C@H](C)N(C)C(=O)[C@@H](CC(=O)O)NC(=O)[C@@H](Cc2c[nH]c3ccccc23)NC1=O (HELM PEPTIDE1{L.[dW].[dD].[meA].[dV]}$PEPTIDE1,PEPTIDE1,1:R1-5:R2$$$V2.0) , state its recorded IC50 max.
Result: 0.034 µM

Task: Given CC(C)C[C@H]1C(=O)N[C@H](Cc2c[nH]c3ccccc23)C(=O)N[C@H](CC(=O)O)C(=O)N2CCC[C@H]2C(=O)N[C@H](C(C)C)C(=O)N1C (HELM PEPTIDE1{[meL].[dW].[dD].P.[dV]}$PEPTIDE1,PEPTIDE1,1:R1-5:R2$$$V2.0) , state its recorded IC50 max.
Result: 0.035 µM
